FYI, the data here is from patent US20240239790A1.

- Procedure Text: Microsomal Stability Assay, mouse liver microsomes
- Format: in vitro ADME
- Conditions: mouse liver microsomes, 60 min
Readout Label: Microsomal Stability Mouse % rem. 60 min

[
  {
    "Compound": "CC(=O)NCCOc1cnc(N[C@H]2CC[C@@H](Oc3nc(N4CCOCC4)cc4ncccc34)CC2)nc1 [Compound 66]",
    "Experimental Value": "G (% remaining = 50-75%)"
  },
  {
    "Compound": "O=C(COc1cnc(N[C@H]2CC[C@@H](Oc3nc(N4CCOCC4)cc4ncccc34)CC2)nc1)N1CCC1 [Compound 75]",
    "Experimental Value": "G (% remaining = 50-75%)"
  }
]

----------
- Procedure Text: Pharmacokinetic study in male Beagle dogs (IV and PO), plasma
- Format: in vivo, dog
- Conditions: male, Beagle; dog plasma, PO, 10 mg/kg
Readout Label: half-life

[
  {
    "Compound Structure": "CN1CCN(CCOc2cnc(N[C@H]3CC[C@@H](Oc4nc(N5CCOCC5)cc5ncccc45)CC3)nc2)CC1",
    "Experimental Value": "13.8 h"
  },
  {
    "Compound Structure": "O=C(COc1cnc(N[C@H]2CC[C@@H](Oc3nc(N4CCOCC4)cc4ncccc34)CC2)nc1)N1CCOCC1",
    "Experimental Value": "4.39 h"
  },
  {
    "Compound Structure": "CN(C)C(=O)Cn1ccc2nc(N[C@H]3CC[C@@H](Oc4nc(N5CCOCC5)cc5ncccc45)CC3)ncc21",
    "Experimental Value": "2.62 h"
  }
]

----------
Entries annotated with measured IC50
- Target Entity: DNA-PK phosphorylation at Serine 2056 (Homo sapiens)
- Construct: FaDu cells were purchased from ATCC; host or cells: FaDu
- Procedure Text: Cellular Assay for Inhibition of DNA-PK Phosphorylation at Serine 2056 in FaDu cells (sandwich ELISA, neocarzinostatin)
- Assay type: cell-based
- Conditions: pSer2056 DNA-PK, neocarzinostatin 1 μg/mL, Table 1

[
  {
    "Compound Structure": "O=C(COc1cnc(N[C@H]2CC[C@@H](Oc3nc(N4CCOCC4)cc4ncccc34)CC2)nc1)N1CC(F)C1",
    "Target Entity": "DNA-PK phosphorylation at Serine 2056 (Homo sapiens)",
    "IC50": "100 to 1000 nM"
  },
  {
    "Compound Structure": "CN1CCN(CCOc2cnc(N[C@H]3CC[C@@H](Oc4nc(N5CCOCC5)cc5ncccc45)CC3)nc2)CC1",
    "Target Entity": "DNA-PK phosphorylation at Serine 2056 (Homo sapiens)",
    "IC50": "< 100 nM"
  },
  {
    "Compound Structure": "O=C(COc1cnc(N[C@H]2CC[C@@H](Oc3nc(N4CCOCC4)cc4ncccc34)CC2)nc1)N1CCC1",
    "Target Entity": "DNA-PK phosphorylation at Serine 2056 (Homo sapiens)",
    "IC50": "< 100 nM"
  },
  {
    "Compound Structure": "NC(=O)c1cnc2cc(N3CCOCC3)nc(O[C@H]3CC[C@@H](n4ccnc4)CC3)c2c1",
    "Target Entity": "DNA-PK phosphorylation at Serine 2056 (Homo sapiens)",
    "IC50": "10000 to 30000 nM"
  }
]

----------
Measured IC50 by item
- Target Entity: DNA-PK phosphorylation at Serine 2056 (Homo sapiens)
- Construct: FaDu cells were purchased from ATCC; host or cells: FaDu
- Procedure Text: Cellular Assay for Inhibition of DNA-PK Phosphorylation at Serine 2056 in FaDu cells (sandwich ELISA, neocarzinostatin)
- Assay type: cell-based
- Conditions: pSer2056 DNA-PK, Table 3
- Procedure: FaDu cells were purchased from ATCC and maintained in MEM alpha medium (Life Technologies, cat. no. 12561) supplemented with 10% fetal bovine serum, and 1% GlutaMAX at 37° C. supplemented with 5% CO2. 50,000 cells were seeded to each well of a 96-well cell culture plate in 50 μL of culture medium and incubated for 16-24 hours. Three-fold serially diluted compounds were prepared in DMSO. […] Cell lysates were thawed on wet ice and protein concentrations quantified by BCA Protein Assay (Thermo #23225). […]
Readout Label: IC50

[
  {
    "Compound": "CN1CCc2nc(N[C@H]3CC[C@@H](Oc4nc(N5CCOCC5)cc5ncc(NS(C)(=O)=O)cc45)CC3)ccc2C1 [LFA2008]",
    "Experimental Value": "< 100 nM"
  },
  {
    "Compound": "CN1CCN(CCc2cnc(N[C@H]3CC[C@@H](Oc4nc(N5CCOCC5)cc5ncc(NS(C)(=O)=O)cc45)CC3)nc2)CC1 [LFA2031]",
    "Experimental Value": "< 100 nM"
  },
  {
    "Compound": "CS(=O)(=O)Nc1cnc2cc(N3CCOCC3)nc(O[C@H]3CC[C@@H](Nc4ncc(N5CC6CCC(C5)N6)cn4)CC3)c2c1 [LFA2016]",
    "Experimental Value": "100 to 1000 nM"
  },
  {
    "Compound": "CN1CCC(Oc2cnc(N[C@H]3CC[C@@H](Oc4nc(N5CCOCC5)cc5ncc(O)cc45)CC3)nc2)C1 (stereo partly drawn) [LFA2033]",
    "Experimental Value": "< 100 nM"
  },
  {
    "Compound": "CC(NS(=O)(=O)c1cnc2cc(N3CCOCC3)nc(O[C@H]3CC[C@@H](Nc4ncc(OCCN5CCN(C)CC5)cn4)CC3)c2c1)c1cnc([N+](=O)[O-])n1C (stereo partly drawn) [LFA2090]",
    "Experimental Value": "10000 to 30000 nM"
  },
  {
    "Compound": "Cn1c(CN(c2cnc3cc(N4CCOCC4)nc(O[C@H]4CC[C@@H](Nc5ccc(F)cn5)CC4)c3c2)S(C)(=O)=O)cnc1[N+](=O)[O-] [LFA2010]",
    "Experimental Value": "100 to 1000 nM"
  }
]

----------
- Procedure Text: Pharmacokinetic study in mice (IV and PO), plasma
- Format: in vivo, mouse
- Conditions: female, C57BL/6; mouse plasma, PO, 10 mg/kg
List of AUC(0-t) values.
Readout Label: AUC(0-t)

[
  {
    "Compound Structure": "O=C(COc1cnc(N[C@H]2CC[C@@H](Oc3nc(N4CCOCC4)cc4ncccc34)CC2)nc1)N1CCC1",
    "Readout Label": "AUC(0-t)",
    "Experimental Value": "18200 ng·h/mL"
  },
  {
    "Compound Structure": "CN1CCN(CCOc2cnc(N[C@H]3CC[C@@H](Oc4nc(N5CCOCC5)cc5ncccc45)CC3)nc2)CC1",
    "Readout Label": "AUC(0-t)",
    "Experimental Value": "5680 ng·h/mL"
  },
  {
    "Compound Structure": "O=C(COc1cnc(N[C@H]2CC[C@@H](Oc3nc(N4CCOCC4)cc4ncccc34)CC2)nc1)N1CCOCC1",
    "Readout Label": "AUC(0-t)",
    "Experimental Value": "12600 ng·h/mL"
  },
  {
    "Compound Structure": "CN(C)C(=O)Cn1ccc2nc(N[C@H]3CC[C@@H](Oc4nc(N5CCOCC5)cc5ncccc45)CC3)ncc21",
    "Readout Label": "AUC(0-t)",
    "Experimental Value": "2620 ng·h/mL"
  },
  {
    "Compound Structure": "CN(C)C(=O)Cn1c(=O)n(C2CCOCC2)c2nc(N[C@H]3CC[C@@H](Oc4nc(N5CCOCC5)cc5ncccc45)CC3)ncc21",
    "Readout Label": "AUC(0-t)",
    "Experimental Value": "6770 ng·h/mL"
  }
]

----------
Collected pEC50 values appear next to each entry.
- Test system: pDNA-PK induction in HCT116 tumour spheroids
- Procedure Text: Multicellular tumour spheroid + radiation, pDNA-PK (ser2056) inhibition, immunohistochemical endpoint, HCT116
- Format: cell-based
- Conditions: Homo sapiens, HCT-116; 20 Gy, 2 hours following radiation, 20% O2; Example 9 Study 2; read-out: Spheroid Cell line: HCT116 Immunohistochemical endpoint pDNA-PK inhibition EC50
pEC50: −log10 of the molar value.
Readout Label: pEC50

[
  {
    "Molecule": "O=S(=O)(CF)Nc1cnc2cc(N3CCOCC3)nc(O[C@H]3CC[C@@H](Nc4ncccn4)CC3)c2c1",
    "Target Entity": "pDNA-PK induction in HCT116 tumour spheroids",
    "Readout Label": "pEC50",
    "Experimental Value": "6.30 to 8.00"
  },
  {
    "Molecule": "O=c1[nH]c2cnc(N[C@H]3CC[C@@H](Oc4nc(N5CCOCC5)cc5ncccc45)CC3)nc2n1C1CCOCC1",
    "Target Entity": "pDNA-PK induction in HCT116 tumour spheroids",
    "Readout Label": "pEC50",
    "Experimental Value": "6.30 to 8.00"
  },
  {
    "Molecule": "COC(=O)c1cnc2cc(N3CCOCC3)nc(O[C@H]3CC[C@@H](n4ccnc4)CC3)c2c1",
    "Target Entity": "pDNA-PK induction in HCT116 tumour spheroids",
    "Readout Label": "pEC50",
    "Experimental Value": "5.00 to 6.00"
  },
  {
    "Molecule": "CS(=O)(=O)c1cnc2cc(N3CCOCC3)nc(O[C@H]3CC[C@@H](Nc4ncnc5ccoc45)CC3)c2c1 [Compound 204b]",
    "Target Entity": "pDNA-PK induction in HCT116 tumour spheroids",
    "Readout Label": "pEC50",
    "Experimental Value": "6.30 to 8.00"
  },
  {
    "Molecule": "CNC(=O)COc1cnc(N[C@H]2CC[C@@H](Oc3nc(N4CCOCC4)cc4ncccc34)CC2)nc1",
    "Target Entity": "pDNA-PK induction in HCT116 tumour spheroids",
    "Readout Label": "pEC50",
    "Experimental Value": "6.30 to 8.00"
  },
  {
    "Molecule": "CN(C)CCOc1cnc(C(=O)N[C@H]2CC[C@@H](Oc3nc(N4CCOCC4)cc4ncccc34)CC2)nc1",
    "Target Entity": "pDNA-PK induction in HCT116 tumour spheroids",
    "Readout Label": "pEC50",
    "Experimental Value": "4.00 to 5.00"
  },
  {
    "Molecule": "CS(=O)(=O)c1cnc2cc(N3CCOCC3)nc(O[C@H]3CC[C@@H](Nc4ncc(OCC(=O)N5CCOCC5)cn4)CC3)c2c1 [Compound 204a]",
    "Target Entity": "pDNA-PK induction in HCT116 tumour spheroids",
    "Readout Label": "pEC50",
    "Experimental Value": "5.00 to 6.00"
  }
]
